experimental-target: SARS-CoV-2 spike protein receptor binding domain, wild-type (Wuhan type) (SARS-CoV-2, UniProt P0DTC2)
protocol-notes: BLI
# note: boundary value 100 nM maps to class 0; Kd below it maps to class 1

A selection of reference data follows.
[
  {
    "binder": "H11-H4 V102Y mutant nanobody (VHH) VHH: QVQLVESGGGLMQAGGSLRLSCAVSGRTFSTAAMGWFRQAPGKEREFVAAIRWSGGSAYYADSVKGRFTISRDKAKNTVYLQMNSLKYEDTAVYYCAQTHYYSYLLSDYATWPYDYWGQGTQVTVSS",
    "qualitative-label": "class 0"
  },
  {
    "binder": "H11-H4 L106W mutant nanobody (VHH) VHH: QVQLVESGGGLMQAGGSLRLSCAVSGRTFSTAAMGWFRQAPGKEREFVAAIRWSGGSAYYADSVKGRFTISRDKAKNTVYLQMNSLKYEDTAVYYCAQTHYVSYLWSDYATWPYDYWGQGTQVTVSS",
    "qualitative-label": "class 0"
  },
  {
    "binder": "H11-H4 L106F mutant nanobody (VHH) VHH: QVQLVESGGGLMQAGGSLRLSCAVSGRTFSTAAMGWFRQAPGKEREFVAAIRWSGGSAYYADSVKGRFTISRDKAKNTVYLQMNSLKYEDTAVYYCAQTHYVSYLFSDYATWPYDYWGQGTQVTVSS",
    "qualitative-label": "class 0"
  }
]

[Q] Answer whether the binder H11-H4 nanobody, wild type (VHH) VHH: QVQLVESGGGLMQAGGSLRLSCAVSGRTFSTAAMGWFRQAPGKEREFVAAIRWSGGSAYYADSVKGRFTISRDKAKNTVYLQMNSLKYEDTAVYYCAQTHYVSYLLSDYATWPYDYWGQGTQVTVSS has Kd strictly less than 100 nM
[A] class 1

[Q] Just wondering, is Kd of H11-H4 H100Y mutant nanobody (VHH) VHH: QVQLVESGGGLMQAGGSLRLSCAVSGRTFSTAAMGWFRQAPGKEREFVAAIRWSGGSAYYADSVKGRFTISRDKAKNTVYLQMNSLKYEDTAVYYCAQTYYVSYLLSDYATWPYDYWGQGTQVTVSS below 100 nM?
[A] class 0
